System: rabbit aortic slices
Assay: vessel relaxation assay (in vitro, tissue-based, rabbit aortic slices)
Format: cell-based
QUANTITY: EC50 (µM)
Dear colleague, please return just the value in µM, with no unit written.

Indicate its recorded EC50; the molecule in question is CCCCc1nc(Cl)c(C(=O)OC(C)OC(=O)OCCCC[C@H](CO[N+](=O)[O-])O[N+](=O)[O-])n1Cc1ccc(-c2ccccc2-c2nnn[nH]2)cc1 (single isomer, unassigned) 1.3
